- test_details: Stability assay in rat liver microsomes
- Assay type: in vitro ADME
- experimental_setup: rat microsomes, 10 μM, parent remaining
quantity: Metabolic stability, % after 30 min incubation (%)

Incoming: Please give the documented Metabolic stability, % after 30 min incubation of N#Cc1ccc(C[C@H](NC(=O)Nc2ccc(F)cc2)C(=O)N2CCCC2)cc1 [(S)-11c]
Outgoing: 65

Incoming: Please give the documented Metabolic stability, % after 30 min incubation of N#Cc1ccc(C[C@H](NC(=O)Nc2ccc(F)cc2)C(=O)N2CCc3ccc(F)cc32)cc1 [(S)-11l]
Outgoing: 33

[I] N#Cc1ccc(C[C@@H](NC(=O)Nc2ccc(F)cc2)C(=O)N2CCc3cc(F)ccc32)cc1 [(R)-11i]
[II] N#Cc1ccc(C[C@H](NC(=O)Nc2ccc(F)cc2)C(=O)N2CCCCC2)cc1 [(S)-11b]
Incoming: Form field 'greater Metabolic stability, % after 30 min incubation' accepts I or II ; which applies? Give the chosen item's label as your response.
Outgoing: I
